# target.desc: EHMT1 (Homo sapiens, UniProt Q9H9B1)
# Sequence (Q9H9B1 whole entry, species assumed): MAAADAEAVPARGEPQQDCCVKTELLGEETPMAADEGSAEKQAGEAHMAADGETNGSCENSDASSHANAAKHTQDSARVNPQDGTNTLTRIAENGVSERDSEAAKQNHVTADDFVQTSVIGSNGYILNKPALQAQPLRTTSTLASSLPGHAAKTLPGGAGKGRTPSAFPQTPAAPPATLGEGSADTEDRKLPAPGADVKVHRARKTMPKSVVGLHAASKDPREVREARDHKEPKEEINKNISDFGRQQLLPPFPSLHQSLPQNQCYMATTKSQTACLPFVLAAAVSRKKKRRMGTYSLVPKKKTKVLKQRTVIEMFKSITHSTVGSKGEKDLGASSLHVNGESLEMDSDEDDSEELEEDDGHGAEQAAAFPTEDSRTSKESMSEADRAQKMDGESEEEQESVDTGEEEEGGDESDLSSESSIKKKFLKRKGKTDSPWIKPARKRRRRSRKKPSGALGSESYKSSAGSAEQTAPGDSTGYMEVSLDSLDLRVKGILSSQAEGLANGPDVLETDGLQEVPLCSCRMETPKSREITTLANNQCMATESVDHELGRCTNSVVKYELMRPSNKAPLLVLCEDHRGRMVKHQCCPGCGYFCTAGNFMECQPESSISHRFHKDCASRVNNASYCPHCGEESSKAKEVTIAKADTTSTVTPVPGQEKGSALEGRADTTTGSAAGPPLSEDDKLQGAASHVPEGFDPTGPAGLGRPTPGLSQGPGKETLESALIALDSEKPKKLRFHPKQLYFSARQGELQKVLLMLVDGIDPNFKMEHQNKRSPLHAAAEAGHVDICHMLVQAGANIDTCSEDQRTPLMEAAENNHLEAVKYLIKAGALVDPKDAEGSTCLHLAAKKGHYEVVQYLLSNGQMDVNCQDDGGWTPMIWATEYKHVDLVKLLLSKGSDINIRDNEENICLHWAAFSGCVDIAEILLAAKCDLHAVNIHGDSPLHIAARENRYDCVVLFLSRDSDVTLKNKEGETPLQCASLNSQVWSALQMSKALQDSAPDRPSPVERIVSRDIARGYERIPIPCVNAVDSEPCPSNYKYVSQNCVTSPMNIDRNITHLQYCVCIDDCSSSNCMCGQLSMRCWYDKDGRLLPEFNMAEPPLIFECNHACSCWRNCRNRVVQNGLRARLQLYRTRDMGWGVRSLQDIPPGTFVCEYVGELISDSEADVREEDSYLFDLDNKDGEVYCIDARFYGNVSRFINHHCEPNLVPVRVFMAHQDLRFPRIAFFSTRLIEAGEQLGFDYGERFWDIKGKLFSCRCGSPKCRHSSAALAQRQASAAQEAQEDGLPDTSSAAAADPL
# experiment.notes: EHMT1 enzyme assay on peptide substrate (EHMT1 PEP)
# Assay type: biochemical
# condition.description: Table VII; read-out: EHMT1 PEP IC50
pIC50: −log10 of the molar value.
observed.property: pIC50

Task: Look at this compound and give its reported pIC50. `CNC[C@@H](O)COc1cc(Nc2nccc(NC)n2)ccc1OC`
Result: 6.00 to 7.00

---
Task: Look at this compound and give its reported pIC50. `CNc1cc(C)nc(Nc2ccc(OC)c(OC[C@H](O)CN3CCC3)c2)n1`
Result: > 7.00

Task: Look at this compound and give its reported pIC50. CNCC(C)NCc1cc(Nc2nc(C)cc(NC)n2)ccc1OC (stereo not drawn)
Result: 6.00 to 7.00

Task: Look at this compound and give its reported pIC50. `CNc1cc(C)nc(Nc2ccc(OC)c(CNCCN(C)C)c2)n1`
Result: > 7.00

Task: Look at this compound and give its reported pIC50. `CNc1cc(C)nc(Nc2ccc(OC)c(OC[C@H](O)CN3CCCC3)c2)n1`
Result: > 7.00

Task: Look at this compound and give its reported pIC50. `CNc1cc(C)nc(Nc2cnc(OC)c(CNCCN3CCCC3)c2)n1`
Result: 6.00 to 7.00

Task: Look at this compound and give its reported pIC50. `CNC[C@H](C)NCc1cc(Nc2nc(C)cc(NC)n2)ccc1OC`
Result: > 7.00

Task: Look at this compound and give its reported pIC50. `CNc1cc(C2CCOCC2)c2cc(OC)c(OC[C@H](O)CN3CCCC3)cc2n1`
Result: > 7.00

Task: Look at this compound and give its reported pIC50. `Cc1ccc(NC(=O)Nc2ccc(Nc3nc(C)cc(N4CCCC4)n3)cc2)cc1`
Result: 5.00 to 6.00

----------
# target.desc: EHMT2 (Homo sapiens, UniProt Q96KQ7)
# Construct: host or cells: MDA-MB-231
# experiment.notes: MDA-MB-231 H3K9me2 in-cell Western assay (EHMT2 ICW)
# Format: cell-based
# condition.description: Table II; MDA-MB-231 H3K9me2 in-cell Western; read-out: EHMT2 ICW (IC50 μM)
observed.property: IC50

Task: Look at this compound and give its reported IC50. COc1ccc(Nc2nccc(N(C)CCCO)n2)cc1OCCCN1CCCC1 [Compound 140]
Result: > 10 µM

Task: Look at this compound and give its reported IC50. COc1ccc(Nc2nc(C)cc(C)n2)cc1OCCCN1CCCC1 [Compound 175]
Result: > 10 µM

Task: Look at this compound and give its reported IC50. COc1ccc(Nc2cc(NCC3CCNCC3)ccn2)cc1OCCCN1CCCC1 [Compound 10]
Result: > 10 µM

Task: Look at this compound and give its reported IC50. COc1ccc(Nc2nccc(N3CCC(C)(O)CC3)n2)cc1OCCCN1CCCC1 [Compound 141]
Result: > 10 µM

Task: Look at this compound and give its reported IC50. CNc1cc(C)nc(Nc2ccc(OC)c(OCCCN3CC[C@@H](F)C3)c2)n1 [Compound 186]
Result: 0.1 to 1 µM

Task: Look at this compound and give its reported IC50. COc1ccc(Nc2nccc(NCC3CCN(c4ccccc4)CC3)n2)cc1OCCCN1CCCC1 [Compound 33]
Result: 0.1 to 1 µM

Task: Look at this compound and give its reported IC50. COc1ccc(Nc2nccc(NCc3ccc(=O)[nH]c3)n2)cc1OCCCN1CCCC1 [Compound 165]
Result: > 10 µM

Task: Look at this compound and give its reported IC50. COc1ccc(Nc2ccnc(NCC3CCN(C(C)=O)CC3)n2)cc1OCCCN1CCCC1 [Compound 216]
Result: > 10 µM

Now, please, on to the next compound.
Task: Look at this compound and give its reported IC50. COc1ccc(Nc2nccc(N3CCN(C(C)=O)CC3)n2)cc1OCCCN1CCCC1 [Compound 139]
Result: > 10 µM

----------
Overview of recorded IC50 for various molecules
# target.desc: human EHMT2 913-1193 (Homo sapiens, UniProt Q96KQ7)
# Construct: recombinant purified human EHMT2 913-1193, Viva; purchased Viva
# experiment.notes: EHMT2 enzyme assay on histone peptide substrate (EHMT2 PEP)
# Assay type: biochemical
# condition.description: recombinant human EHMT2 913-1193, histone H3 1-15 peptide, balanced conditions; read-out: EHMT2 PEP (IC50 μM)

Here are 3 molecules together with their reported answers.
Task: Look at this molecule and give its reported IC50. `CNc1cc(C)nc(Nc2cnc(OC)c(OC[C@H]3CCN(C4CC4)C3)c2)n1`
Result: 0.1 to 1 µM

Task: Look at this molecule and give its reported IC50. `CNc1nc(C2CC(C)(C)NC(C)(C)C2)c2cc(OC)c(OCCCN3CCCC3)cc2n1`
Result: 1 to 10 µM

Task: Look at this molecule and give its reported IC50. `CNc1cc(C2CCOCC2)c2cc(OC)c(OCCCN3CCCC3)cc2n1`
Result: < 0.1 µM

Now, please, on to the next molecule.
Task: Look at this molecule and give its reported IC50. COc1cnc(Nc2nccc3[nH]ccc23)cc1OCCCN1CC2CC2C1 (stereo not shown)
Result: < 0.1 µM

----------
# target.desc: EHMT2 (Homo sapiens, UniProt Q96KQ7)
# Construct: host or cells: MDA-MB-231
# Sequence (Q96KQ7 1-1210): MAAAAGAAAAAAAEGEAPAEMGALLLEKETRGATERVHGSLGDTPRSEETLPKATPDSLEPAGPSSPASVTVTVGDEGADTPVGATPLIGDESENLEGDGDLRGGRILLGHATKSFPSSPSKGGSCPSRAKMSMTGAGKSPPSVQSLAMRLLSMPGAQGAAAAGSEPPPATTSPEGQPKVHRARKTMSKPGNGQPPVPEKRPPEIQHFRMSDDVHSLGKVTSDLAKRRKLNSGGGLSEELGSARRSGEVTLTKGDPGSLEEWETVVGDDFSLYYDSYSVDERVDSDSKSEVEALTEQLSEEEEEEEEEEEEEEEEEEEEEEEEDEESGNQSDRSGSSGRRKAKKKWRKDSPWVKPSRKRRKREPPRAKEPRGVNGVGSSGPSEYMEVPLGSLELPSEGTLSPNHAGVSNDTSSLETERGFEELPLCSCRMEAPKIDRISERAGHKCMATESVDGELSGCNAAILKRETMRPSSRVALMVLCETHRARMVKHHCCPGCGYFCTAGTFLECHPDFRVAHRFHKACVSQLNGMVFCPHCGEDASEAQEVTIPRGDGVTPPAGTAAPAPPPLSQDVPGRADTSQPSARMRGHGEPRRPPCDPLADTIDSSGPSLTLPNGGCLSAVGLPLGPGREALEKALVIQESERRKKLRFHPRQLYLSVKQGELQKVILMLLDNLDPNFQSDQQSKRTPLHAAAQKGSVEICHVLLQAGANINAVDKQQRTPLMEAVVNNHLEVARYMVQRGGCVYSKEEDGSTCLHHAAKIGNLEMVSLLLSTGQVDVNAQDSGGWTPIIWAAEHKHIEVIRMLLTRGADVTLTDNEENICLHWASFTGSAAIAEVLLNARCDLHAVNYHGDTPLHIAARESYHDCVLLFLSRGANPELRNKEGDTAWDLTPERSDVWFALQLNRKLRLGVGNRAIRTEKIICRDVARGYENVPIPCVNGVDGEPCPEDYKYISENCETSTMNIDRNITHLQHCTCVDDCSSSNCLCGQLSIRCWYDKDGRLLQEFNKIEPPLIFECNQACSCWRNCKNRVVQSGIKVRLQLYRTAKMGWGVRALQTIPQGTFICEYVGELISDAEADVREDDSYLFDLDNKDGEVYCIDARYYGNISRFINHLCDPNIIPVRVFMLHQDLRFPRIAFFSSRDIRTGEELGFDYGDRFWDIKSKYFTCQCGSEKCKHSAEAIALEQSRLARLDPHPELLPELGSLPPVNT
# experiment.notes: MDA-MB-231 H3K9me2 in-cell Western assay (EHMT2 ICW)
# Type: cell-based
# condition.description: Table II; MDA-MB-231 H3K9me2 in-cell Western; read-out: EHMT2 ICW (IC50 μM)
observed.property: IC50

Task: Look at this compound and give its reported IC50. COc1ccc(Nc2nccc(N3CCN(C)C(=O)C3)n2)cc1OCCCN1CCCC1 [Compound 132]
Result: > 10 µM

Task: Look at this compound and give its reported IC50. COc1ccc(Nc2nccc(NCC3CCN(C(C)=O)CC3)n2)cc1COCCN1CC(F)C1 [Compound 57]
Result: 1 to 10 µM

Task: Look at this compound and give its reported IC50. CNc1cncc(Nc2ccc(OC)c(OCCCN3CCCC3)c2)n1 [Compound 247]
Result: 1 to 10 µM

Task: Look at this compound and give its reported IC50. COc1ccc(Nc2nccc(NC(C)C)n2)cc1OCCCN1CCCC1 [Compound 20]
Result: 0.1 to 1 µM

---
Task: Look at this compound and give its reported IC50. CC(C)Nc1ccnc(Nc2cccc(OCCCN3CC[C@@H](F)C3)c2)n1 [Compound 251]
Result: > 10 µM

Task: Look at this compound and give its reported IC50. COc1ccc(Nc2nccc(NC3COC3)n2)cc1OCCCN1CCCC1 [Compound 137]
Result: > 10 µM

Task: Look at this compound and give its reported IC50. COc1ccc(Nc2cc(OCC3CCN(C(C)=O)CC3)ccn2)cc1OCCCN1CCCC1 [Compound 173]
Result: > 10 µM

The values you see were collected from patent US20210198277A1.
